Where do these numbers come from? They come from PubChem BioAssay (NCI).

- System: NCI-H522 lung
- procedure_text: NCI-60 one-dose screen, 48 h (100 = growth as untreated, 0 = no growth, -100 = all killed)
- stated_conditions: 10 µM unless noted
Compounds without any hit were thinned out: in the full panel of roughly 83,000, 20% have a hit.
assay_readout: growth (%)
Enter your answer as a number in %; do not include the unit.

Worked examples follow.
O=NN(Cc1cccnc1)C(=O)NC1CCCCC1 ... 90.5
COc1ccc(C2=C(c3cccc(OC)c3)C(=O)c3ccc(C)nc3C2=O)cc1 ... 40.9
OC(CNC1CCCCC1)Cn1c2ccc(I)cc2c2cc(I)ccc21 (stereo not given) ... 67.5
COC(=O)/C(=C\c1c(C)[nH]c2ccccc12)S(=O)(=O)c1ccccc1 ... 31.9
CC[C@@H](C)[C@H](NC(=O)Cn1cc(CNC(=O)[C@@H](NC(=O)OCc2ccccc2)C(C)C)nn1)C(=O)O ... 101
O=C1c2ccc3c4c(ccc(c24)C(=O)N1CCCCO)C(=O)N(CCCCO)C3=O ... -13.4

Next item in the queue.
stdin: Fill blank: measured growth of the molecule COc1ccc(C2Nc3ncnc(N)c3N=C3c4ccccc4C(=O)C32)cc1 (stereo not given) is ____.
stdout: 101

---

Reported growth by item:
- Test system: SN12C renal
- procedure_text: NCI-60 one-dose screen, 48 h (100 = growth as untreated, 0 = no growth, -100 = all killed)
- stated_conditions: 10 µM unless noted
The panel holds about 83,000 compounds, 20% with a hit somewhere; the sample as a whole holds those more often.
Enter your answer as a number in %; do not include the unit.

CNCCNc1nc2ccccc2c2c(=O)c3cccc(C)c3sc12 ... 32.5
CC1=C(C(=O)OCC2CCN(C(=O)OC(C)(C)C)CC2)[C@H](c2cccc(Br)c2)C2=C(CC(C)(C)CC2=O)N1 ... 31.2
Oc1[nH]c2ccccc2c1N=Nc1nnc2n1N=C(c1ccccc1)CS2 ... 99.1
C=CCN1C(=O)/C(=c2\sc3n(c2=O)NC2C(N=3)N(CC)C(=O)N2CC)c2ccccc21 (stereo not given) ... 56.7
COC(=O)c1c2c(c(C)[n+]([O-])c1C)C(=O)C(NCc1ccc(F)c(F)c1)=CC2=O ... 1.1

stdin: Fill blank: measured growth of the compound `c1ccc(CNc2nc(Nc3ccccc3)nc3ccccc23)cc1` is ____.
stdout: 71.3

stdin: Fill blank: measured growth of the compound COc1ccc(-c2nsc3c2NC(=O)CC3c2ccsc2)cc1 (stereo not given) is ____.
stdout: 41.9

stdin: Fill blank: measured growth of the compound `CCOC(=O)c1cc2c(n1Cc1cc(OC)c(OC)c(OC)c1)-c1oncc1CCC2` is ____.
stdout: 32.1

stdin: Fill blank: measured growth of the compound `CC(=O)c1ccc(Cc2ccc(C(C)=O)s2)s1` is ____.
stdout: 98

stdin: Fill blank: measured growth of the compound `COC(=O)/C(=C\c1c(-c2ccccc2)[nH]c2ccccc12)S(C)(=O)=O` is ____.
stdout: 59.4

---

- Tested on: HOP-92 NSCLC
- procedure_text: NCI-60 one-dose screen, 48 h
- stated_conditions: 10 µM unless noted
This is part of a sample that, as a whole, favours compounds with a hit. Of some 83,000 tested, about 20% had one in any assay. Active and inactive are the calls of the source. How the source made its calls: active means growth percent below 10; inactive means the rest.
Form entry, call: pick from active, inactive

Below, 8 molecules whose answers are already recorded.
CC(=O)n1cc(-c2c[nH]c3ccccc23)c(-c2ccc(Cl)cc2)n1 ... inactive
COc1ccc(-c2c(-c3ccc(OC)c(O)c3)cnc3ncnn23)cc1 ... inactive
CCOc1ccc(Nc2ccnc3cc(Cl)ccc23)cc1 ... active
CCN1C(=O)N(c2ccccc2)C2Nn3c(s/c(=C4\C(=O)N(C(C)C)c5ccccc54)c3=O)=NC21 (centres undefined) ... inactive
O=c1oc2ccc(Br)cc2c(=O)n1-c1ccc(I)cc1F ... active
COc1ccc(-c2cc(=O)c3c(OC)c4ccoc4c(/C=C/C=O)c3o2)cc1 ... inactive
CC(=O)SC1CC(=O)C=C2CCC3C4CCC(=O)OC4(C)CCC3C21C (centres undefined) ... inactive
COc1ccc(C(=O)C2CC2c2ccc(Cl)cc2)cc1 (centres undefined) ... inactive

stdin: Per the assay record, what outcome was assigned to COc1cc(/C=C/C(=O)N2c3ccccc3CC2C)c(OC)c2c1OCO2 (centres undefined) ?
stdout: inactive

---

- Tested on: NCI-H322M lung
- procedure_text: NCI-60 one-dose screen, 48 h (100 = growth as untreated, 0 = no growth, -100 = all killed)
- stated_conditions: 10 µM unless noted
Compounds without any hit were thinned out: in the full panel of roughly 83,000, 20% have a hit. Active and inactive are the calls of the source. How the source made its calls: active means growth percent below 10; inactive means the rest.
assay_readout: growth

Worked examples follow.
O=c1c2cccc(F)c2sc2c(N3CCNCC3)nc3ccccc3c12 ... 37.9% (inactive)
O=C(Nc1ncc(Cc2cccc(C(F)(F)F)c2)s1)C1COc2ccccc2O1 (stereo not given) ... 91.2% (inactive)
O=C1C(Cl)=C(NCc2ccco2)C(=O)c2ccccc21 ... 115% (inactive)
COc1ccc(/C=C/C(=O)c2c(C)nc3ccccc3c2/C=C/c2ccccc2)cc1O ... 42.3% (inactive)
COc1ccc(Br)c(/C=C2\SC(=Nc3ccc(O)cc3)NC2=O)c1 ... 99.8% (inactive)
CCOC(=O)c1cnc2ccc(Cl)cc2c1NCCCN(C)C ... 10.4% (inactive)
CCOC(=O)c1sc(-c2ccc(OS(=O)(=O)C[C@]34CCC(CC3=O)C4(C)C)c(C=O)c2)nc1C ... 50.4% (inactive)
Cn1c2c(c(=O)[nH]c1=O)NC1=C(C(=O)c3ccccc31)C1(C=C(O)c3ccccc31)N2 (stereo not given) ... 113% (inactive)

Next item in the queue.
stdin: Fill blank: measured growth of the compound `Fc1ccc(Oc2ccc(Nc3ncnc4onc(-c5ccccc5)c34)cc2)cc1` is ____.
stdout: 87.9% (inactive)

---

- Tested on: BT-549 breast
- procedure_text: NCI-60 one-dose screen, 48 h
- stated_conditions: 10 µM unless noted
- Protocol: Growth inhibition of the BT-549 human tumor cell line is measured as a screen for anti-cancer activity. Cells are grown in 96 well plates and exposed to the test compound for 48 hours. Compounds are tested at a single concentration, which is 10^-5 M for most compounds. The reported endpoint is percent growth (GI% or GIPRCNT), where numbers from 0 - 100% represent growth inhibition, and numbers from -100% - 0 represent cell death. For example, a value of 40 represents 60% growth inhibition. […]
Compounds without any hit were thinned out: in the full panel of roughly 83,000, 20% have a hit. Activity calls are given as the source filed them. How the source made its calls: active means growth percent below 10; inactive means the rest.
Form entry, call: pick from yes (1) = active, no (0) = inactive

Below, 5 compounds whose answers are already recorded.
O=c1oc2ccc(Br)cc2c(=O)n1-c1ccc(Br)cc1F ... yes (1)
O=C(Cn1cc(COc2ncnc3c2cnn3-c2ccccc2)nn1)Nc1ccccn1 ... no (0)
Clc1ccc(Nc2nnc(-c3ccc4c(c3)OCO4)o2)cc1 ... no (0)
COc1ccc(CCN2C(=O)/C(=C/c3ccc(C4Oc5ccccc5C5CC(c6cccc(OC)c6)=NN54)cc3)SC2=S)cc1 (stereo unspecified) ... no (0)
Cc1sc2ncnc(Sc3nc4ccccc4[nH]3)c2c1C ... no (0)

stdin: Per the assay record, what outcome was assigned to `c1ccc(-c2ccc(-c3nc4ccccc4[nH]3)cc2)cc1` ?
stdout: no (0)

stdin: Per the assay record, what outcome was assigned to `CC/C=C\C[C@H](O)C/C=C1/C(=O)C=C[C@@H]1C/C=C\CCCC(=O)OCCS(=O)(=O)c1ccccc1` ?
stdout: yes (1)

stdin: Per the assay record, what outcome was assigned to `COc1cc2nc(NC3CCCC3)nc(NC3CCN(C(C)C)CC3)c2cc1OC` ?
stdout: no (0)

stdin: Per the assay record, what outcome was assigned to COc1ccc(C2c3ccc4ccccc4c3Oc3ncn(CCCn4ccnc4)c(=N)c32)cc1OC (stereo unspecified) ?
stdout: no (0)

---

Reported growth by item:
- System: SNB-19 CNS
- procedure_text: NCI-60 one-dose screen, 48 h (100 = growth as untreated, 0 = no growth, -100 = all killed)
- stated_conditions: 10 µM unless noted
This is part of a sample that, as a whole, favours compounds with a hit. Of some 83,000 tested, about 20% had one in any assay.
Enter your answer as a number in %; do not include the unit.

CCOC(=O)c1cc2c(n1Cc1cc(OC)c(OC)c(OC)c1)-c1oncc1CCC2 ... 72.1
COc1cc(/C=C2\CN(C)C/C(=C\c3cc(CN4CCOCC4)c(O)c(OC)c3)C2=O)cc(CN2CCOCC2)c1O ... 58.5
CC(=S)NC(=O)C(=O)/C=C1/NC(=O)C(=O)S1 ... 106
O=C(c1nc2ccccc2[nH]1)C1C(c2ccc([N+](=O)[O-])cc2)C2CC3CCCCC3N2[C@@]12C(=O)Nc1cc(Cl)ccc12 (stereo not given in full) ... 27.5
O=S(=O)(Nc1ncccn1)c1ccc(NC2Nc3nc4ccccc4nc3S2)cc1 (stereo not given) ... 99.3

stdin: Fill blank: measured growth of the molecule CN1C(=O)N(C)C2(c3ccccc3)OC(=S)NC12c1ccccc1 (stereo not given) is ____.
stdout: 98.4

stdin: Fill blank: measured growth of the molecule `O=c1c(-c2nc3ccccc3[nH]2)cc2ccccc2n1Cc1cn(Cc2ccc(N3CCOCC3)cc2)nn1` is ____.
stdout: 48

stdin: Fill blank: measured growth of the molecule `CCn1c(SCC(=O)Nc2cc(C(F)(F)F)ccc2Cl)nc2ccccc2c1=O` is ____.
stdout: 93.5

stdin: Fill blank: measured growth of the molecule `COc1ccc(OC)c(NC(=O)/C(C#N)=C/c2ccco2)c1` is ____.
stdout: 93.8
